The following molecules are shown together with reported pKd values.
Molecular target: T1, CCL4_HUMAN (Homo sapiens, UniProt P13236)
T1 sequence (P13236 24-92): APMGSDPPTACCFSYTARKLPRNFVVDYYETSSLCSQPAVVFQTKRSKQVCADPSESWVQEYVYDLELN
Assay: Biolayer interferometry (BLI) binding
pKd: −log10 of the molar value.
Observable: pKd

[
  {
    "Molecule": "P1182_AMBMA: tick CKBP, Amblyomma maculatum (protein, listed as Amblyomma maculatum) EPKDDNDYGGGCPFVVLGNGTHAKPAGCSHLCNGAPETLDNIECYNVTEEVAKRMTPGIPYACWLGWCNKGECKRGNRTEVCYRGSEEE",
    "Observable": "pKd",
    "Recorded Number": 7.20
  },
  {
    "Molecule": "P1183_AMBTR: tick CKBP, Amblyomma triste (protein, Amblyomma triste) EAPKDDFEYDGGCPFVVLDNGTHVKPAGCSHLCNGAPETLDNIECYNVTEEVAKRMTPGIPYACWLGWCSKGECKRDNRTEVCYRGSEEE",
    "Observable": "pKd",
    "Recorded Number": 7.11
  },
  {
    "Molecule": "P1181_AMBMA: tick CKBP, Amblyomma maculatum (protein, listed as Amblyomma maculatum) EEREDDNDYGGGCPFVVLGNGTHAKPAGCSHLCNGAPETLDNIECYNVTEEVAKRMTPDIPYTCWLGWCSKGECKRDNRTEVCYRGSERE",
    "Observable": "pKd",
    "Recorded Number": 7.28
  },
  {
    "Molecule": "P1243_AMBAM: tick CKBP, Amblyomma americanum; AAM-02 stated identical (protein, listed as Amblyomma americanum) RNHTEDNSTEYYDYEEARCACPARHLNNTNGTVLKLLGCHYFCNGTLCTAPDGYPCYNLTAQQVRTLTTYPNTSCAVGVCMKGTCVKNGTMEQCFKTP",
    "Observable": "pKd",
    "Recorded Number": 7.82
  },
  {
    "Molecule": "P983_AMBPA: tick CKBP; named P983_AMBCA in Table 1 (protein, Amblyomma cajennense) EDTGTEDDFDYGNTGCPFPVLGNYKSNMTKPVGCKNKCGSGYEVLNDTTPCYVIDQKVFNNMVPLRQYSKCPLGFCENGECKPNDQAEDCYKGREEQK",
    "Observable": "pKd",
    "Recorded Number": 8.10
  },
  {
    "Molecule": "P985_AMBPA: tick CKBP, Amblyomma parvum (protein, listed as Amblyomma parvum) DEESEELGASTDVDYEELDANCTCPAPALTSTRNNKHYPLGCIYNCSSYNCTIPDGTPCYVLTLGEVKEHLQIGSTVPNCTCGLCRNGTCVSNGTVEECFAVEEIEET",
    "Observable": "pKd",
    "Recorded Number": 7.34
  },
  {
    "Molecule": "P467_RHIPU: tick CKBP (evasin), Rhipicephalus pulchellus; RPU-01 stated identical (protein, listed as Rhipicephalus pulchellus) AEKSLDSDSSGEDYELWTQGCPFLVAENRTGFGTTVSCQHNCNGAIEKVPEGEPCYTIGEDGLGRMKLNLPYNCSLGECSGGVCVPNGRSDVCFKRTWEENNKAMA",
    "Observable": "pKd",
    "Recorded Number": 7.87
  },
  {
    "Molecule": "P1180_AMBTR: tick CKBP, Amblyomma triste (protein, Amblyomma triste) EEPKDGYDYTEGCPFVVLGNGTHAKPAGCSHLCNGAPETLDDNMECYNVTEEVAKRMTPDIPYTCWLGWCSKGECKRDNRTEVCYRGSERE",
    "Observable": "pKd",
    "Recorded Number": 7.18
  }
]
